System: K4 kissing-loop RNA reporter
Assay: apparent KD of K4 kissing-loop reporter; higher = weaker reporter binding
Conditions: Eterna round: R107; input ligand: arginine 13.2 mM
reportedProperty: apparent KD of K4 kissing-loop reporter
A complete answer gives the number and then names the unit.

Below, each entry is followed by its recorded apparent KD of K4 kissing-loop reporter result.
UAGGAGUGAUGUUCCAUGUCUUGAGCCGAAGGAGCGCCUUUCUAGGCAGGUAGGUCGCGGCAGAAGGUACCAGUGAUGUUGGAAA [Same State Arginine A GF8] = 385 nM
AAGUACACGAUAGUGUACACCUAGUGAUGUUAGGAUAUGCAGAUAUGCAGAAGGAGCAAGUCAUCUGACAAUAGUCGGAUGACAA [FmnAX 7 #OpenEnded #K4Early] = 63.2 nM
AUGAGGUGACUAAAUAAUAAGGGAAUUGAUACCAGACAGAAUUCUGUCCCUUGGCAGCAGUGAUGUUGUUGCAAGUCAGCUCAAA [AK1.1 Exc Theophylline A] = 186 nM
GAGCGGUAGAGGCUACCGCUAUUCUGAGAAGGAGCGCAGAUGACUGCAGGUAGGUCGCUUAGAGCUUGCAGUGAUGUUGCAAGUU [Inzarier] = 176 nM
CGCUUAGUGAUGUUUGAUUUGGCGCAUGCAGAGGAUAUAGGGUGCUUUAGAAGGCUGAGGAGUGCGCCGAGUGAUGUUCGGCGCU [Exclusion FMN A GF12] = 141 nM

// query Please supply the value of reported apparent KD of K4 kissing-loop reporter for the item UGAUUUAACUGAAGGAGCGGCAAUUGAUAAGUAAAUAUAGUGAUGUUAUAUAAGAUAGAGAGCCAGGUAGGUCGCAGAGGUAUUU [ExArgB.N]
// result 141 nM

// query Kindly indicate its recorded apparent KD of K4 kissing-loop reporter. Item: AAUAAGGUCGCCGAUACCAGCGCAGGCAGAGCAAAGCUCUGCCUGGUAGUGAUGUUACCGCGCCCUUGGCAGCGGUGGCACGACC [Omei KL Theo B SS C v5]
// result 27.1 nM

// query Give the reported value of apparent KD of K4 kissing-loop reporter for this record: GCCAUCUACUAAGGAUAUUAAGUCAAUAUUUGUGGUGCCAUCUGUCGUUCAGGGCAGUGAUGUUGCUAAGAAGGUAGUCUGUCGG [theeternabot_exclusion_KL_FMN_B_39]
// result 441 nM

// query Give recorded apparent KD of K4 kissing-loop reporter. AAUACGAAGCAGUGAUGUUGCUUAUGAGAAGGAGCGCACGAAAGUGCAGGUAGGUCGCUCAGCCAAGUGGACGAAAACGUCCACA [whbob_SS_Arginine_A_sa108]
// result 116 nM

* * *

Tested on: K4 kissing-loop RNA reporter;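 also: bound reporter read as fluorescence of individual clusters on recovered sequencing chips by microscopy, with normalized cluster intensities fitted with a binding model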
Assay: apparent KD of K4 kissing-loop reporter; higher = weaker reporter binding
Conditions: Eterna round: R107; input ligand: arginine 13.2 mM
# binarize apparent KD of K4 kissing-loop reporter: threshold 200 nM inclusive, high side y, low side n

// query Does the sequence GUCCAUGUCCUCAUUCGUGCACUGGACACCAAGGAUAUGUUUAUGGACAGAAGGUGGUUGGGUCAGUGAUGUUGAUAUAAUUAGU [theeternabot_exclusion_KL_FMN_A_24] have recorded apparent KD of K4 kissing-loop reporter that is 200 nM or more?
// result y

// query Is the recorded value of apparent KD of K4 kissing-loop reporter equal to or greater than 200 nM for this sequence? AGAGUUAUGAGAGGAUAUGCGGCUAGUACUCAAAGAGUACUAGCAGCGGAGUGAUGUUCUGUGAAAGCAGAAGGUUCAUAACUCA [#07 K4 FMN B Same State]
// result y

// query Does AGUAGUUGGGCGGCCGCCACUGGAACAGCUUUGCCAAAGGCAGAGCACUAGAGUGAUGUUCUAGCUAGGACCGGGUCCAACUACA [whbob_SS_Tryp_B_t17] have a reported apparent KD of K4 kissing-loop reporter of at least 200 nM?
// result y

// query Form field: apparent KD of K4 kissing-loop reporter at least 200 nM? Entry: UGAGAUAUGAGGGAUACCAGCCAUAAGGAAAGUGUGAUGAGUGAUGUUCUGACAAGCCAAGGCCCUUGGCAGCUUUAAUAGCAUC [whbob_SS_Theo_B_th77]
// result n

// query Check the entry GGAUUCGGCGCGGCCGCCACUUCCGGUGGCUGGUGUCAUGGUGCGCGUGAGUGAUGUUUAUGUGGGAGGACCGGGCGUUGAGUCC [whbob_Ex_Tryp_B_w45] : does apparent KD of K4 kissing-loop reporter equal or exceed 200 nM?
// result y

// query In plain terms: is recorded apparent KD of K4 kissing-loop reporter at least 200 nM for UACAGGGAUAGUGAUGUUAUCCCAUGUGAUACCAGUGCCAUCCAACACCCUUGGCAGCAUACGGGCAGUGAUGUUGUUCUUGGUU [Exclusion Theophylline A GF 13] ?
// result n

* * *

The following sequences are shown together with reported apparent KD of MS2 coat protein values.
Test system: MS2 coat protein
Experiment: apparent KD of MS2 coat protein; designed switch direction (-1 OFF switch, 1 ON switch): 1; higher = weaker reporter binding
Settings: Eterna round: R95; input ligand: FMN 200 uM
Provide the reading as a plain figure in nM.

Worked cases, answers included:
GUUAAACAUGAGGAUCACCCAUGUAAUAAUAUGGGAGGAUAUCAGAAAUUAUGUAUUAAAUGAGAAGGCCUAAUUG [Mat - Same State 1 - Mod of Eli - D80] (puzzle: Same State 1) = 125
GAGAAUCUAUCUCAGGAUAUCAUGUCAAAGACAUGAGGAUCACCCAUGUACCAGGAAACUGGUUAUGAGAAGGGAGAUAGAUUCG [Mat - Same State 2 - Mod - D36] (puzzle: Same State 2) = 86.1

// query State its apparent KD of MS2 coat protein for this sequence: GCGAAACAUGAGGAUCACCCAUGUAUGGCGGGCACAGGAUAUCGUGGUUCGCUCAUACUACGAGAAGGGUGAAAAG [Orqu] (puzzle: Same State 1)
// result 24.1

// query Give apparent KD of MS2 coat protein for the following sequence: UCUUGGUUUUUGCUCGUUUUUUGUGUUGAACAUGAGGAUCACCCAUGUAUUGUACGGUCCAAUUUGAUAAUGGUCCG [JMF 27] (puzzle: Sensor for hsa-mir-208a)
// result 25.1

// query Supply recorded apparent KD of MS2 coat protein for AGUCCAGCCUGAGCUGGACAAAAGCAUGUACAUGAGGAUCACCCAUGUCAUGUACAAGCUUUUUGCUCGUCUUAUAA [Mat - hsa-mir-208a - Mod of JL - D25] (puzzle: Sensor for hsa-mir-208a) here.
// result 643

// query Consider the sequence AGUCCAGCGAAAGCUGGACAAAAGCAUGUACAUGAGGAUCACCCAUGUUCAUGUACAAGCUUUUUGCUCGUCUUAAA [Zipper 52 - 13] (puzzle: Sensor for hsa-mir-208a) . State its measured apparent KD of MS2 coat protein.
// result 486

* * *

Test system: MS2 coat protein
Assay: apparent KD of MS2 coat protein; designed switch direction (-1 OFF switch, 1 ON switch): -1; higher = weaker reporter binding
Details: input ligand: microRNA oligo, concentration not stated
reportedProperty: apparent KD of MS2 coat protein (µM)
Provide only the numeric value, understood in µM.

AAGAAACAUGAGGAUCACCCAUGUGAGGAUAUGCAAGAAAGAAAGAAAGAAAGAAGAAGCAGAAGGCACAAAGG [Gaius Turranius] (Eterna round: R96, puzzle: Exclusion 1) = 0.0297

Here's the next entry for you.
// query Find the measured apparent KD of MS2 coat protein of GAUCCUUUUACGGACGUCUCGAAACAUGAGGAUCACCCAUGUGAGGAUAUCUCCGAGAGAUCGGCAGAGAAGGCACAAUAACAA [MOD Eternabot solution 19 score 84.66] (Eterna round: R96, puzzle: Exclusion NG 3) and report it.
// result 0.0197

* * *

Tested on: MS2 coat protein
Assay: apparent KD of MS2 coat protein; designed switch direction (-1 OFF switch, 1 ON switch): -1; higher = weaker reporter binding
Conditions: Eterna round: R95; input ligand: microRNA oligo, concentration not stated
Param threshold (20 nM) applies to apparent KD of MS2 coat protein; output 1.0 when value >= threshold, 0.0 when value < threshold.

Known results for sequences:
CGGUACUGAGGAUAUACAUGAGGAUCACCCAUGUGUUCCAGCUAGCGUACUGGCAUUUGUAGAAGGCGGUGCUG [JL-ex3-3.22 Brourd mod] (puzzle: Exclusion 3) = 0.0
GGAUCGAGUGUGAGGAUAUGCAGGUCCUUGGAUCUGCAGAAGGCACAUGAGGAUCACCCAUGUGGAAACGGUCC [Mat - Exclusion 4 - JL Mod - D76] (puzzle: Brourd's mod of Exclusion 4) = 1.0
UUUUAGAGAGGAUAUAUAAUGUGAAACAUGAGGAUCACCCAUGUAAUAUUAUGGAUGUAAAUAGAAGGCUCAAUUA [Mat - Exclusion 5 - JL mod - D13] (puzzle: Exclusion 5) = 1.0
CUUUUGUGAGGAUAUCAGUAGUAGAACAAUAGUACUACUACUGAGAAGGCACAUGAGGAUCACCCAUGUUUCUC [Fiskers Ex 4 Super stable 44 mod 4] (puzzle: Exclusion 4) = 1.0
CCGCAUAUGCAGGAUAUCGUAUCGGAAACGAUACGAGAAGGGUAAACAUGAGGAUCACCCAUGUUCCUUAACGG [Fiskers Ex 6 - 28] (puzzle: Exclusion 6) = 0.0

Attention now turns to another entry.
// query # bool: apparent KD of MS2 coat protein of AGUACUAACACGUAAGUGUUAGUACUAUAAGCUUGUGUUACAUGAGGAUCACCCAUGUCCUCAUAAGCUCGUCUUAA [Mat - Sensor v3 - Turn-off var 2 - D71] (puzzle: Sensor v3, turn-off variant 2) >= 20 nM
// result 1.0

Origin of values: the supplement of paper PMC9170038
